# TARGET_OF_ASSAY: (EWS-ZF)x2 (Homo sapiens, UniProt Q01844-5 523-555)
# Sequence (Q01844 518-550): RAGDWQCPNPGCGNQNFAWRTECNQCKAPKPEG
# MEASUREMENT_NOTES: BLI; ITC: 50 mM Tris pH 7.5, 150 mM NaCl, 1 mM DTT, 0.1 mM ZnCl2, 25 °C; BLI: 50 mM Tris pH 7.5, 150 mM NaCl, 1 mM DTT, 0.1% BSA, 0.02% Tween, 30 °C
# STATED_CONDITIONS: protein: recombinant; tags: GST cleaved (HRV-3C); label: 5' biotin
QUANTITY_KIND: binding result

>>> result("AAAGGCGGCAAA (ssRNA) [(GGC)x2 biotin]")
"no binding"
>>> result("AAAGGAGGAAAA (ssRNA) [(GGA)x2 biotin]")
"no binding"
>>> result("AAAAGUAGUAAA (ssRNA) [(AGU)x2 biotin]")
"no binding"
>>> result("AAAGAUGAUAAA (ssRNA) [(GAU)x2 biotin]")
"no binding"

**Query** Return the recorded binding result value; entry: AAAAAAAAAAAA (ssRNA) [(AAA)x2 biotin]
**Result** no binding
